system: rGABA-gated Cl− channel; test: GABA-Gated Cl Channel Antagonist Radioligand Binding Assay; set-up: species or system rat; settings: 10 μM single point, [35S]-TBPS, cerebral cortex membrane homogenates
attribute_measured: rGABA-gated Cl− channel % inh @10 μM (%)
# value in %; strip the unit string

Please provide the recorded rGABA-gated Cl− channel % inh @10 μM for CN1CCC(Oc2ccc(N3C(=S)N(c4cnc(C#N)c(C(F)(F)F)c4)C(=O)C34CCC4)cc2)CC1=O (racemic) , tested on rGABA-gated Cl− channel.
90.4

Please provide the recorded rGABA-gated Cl− channel % inh @10 μM for "COc1cc(N2C(=O)C3(CCC3)N(c3ccc(OC4CCN(C)CC4)cc3)C2=S)cnc1C#N" , tested on rGABA-gated Cl− channel.
4.8

Please provide the recorded rGABA-gated Cl− channel % inh @10 μM for "N#Cc1ncc(N2C(=O)C3(CCC3)N(c3ccc(OCCN4CC5(C4)CC(F)(F)C5)cc3)C2=S)cc1C(F)(F)F" , tested on rGABA-gated Cl− channel.
20.5

Please provide the recorded rGABA-gated Cl− channel % inh @10 μM for "N#Cc1ncc(N2C(=O)C3(CCC3)N(c3ccc(SC4CCNCC4)cc3)C2=S)cc1C(F)(F)F" , tested on rGABA-gated Cl− channel.
44.7

Please provide the recorded rGABA-gated Cl− channel % inh @10 μM for "N#Cc1ncc(N2C(=O)C3(CCC3)N(c3ccc4c(cnn4C4CCNCC4)c3)C2=S)cc1C(F)(F)F" , tested on rGABA-gated Cl− channel.
43.1

Please provide the recorded rGABA-gated Cl− channel % inh @10 μM for "CN1CCC(Oc2ccc(N3C(=S)N(c4cnc(C#N)c(Cl)c4)C(=O)C34CCC4)cc2)CC1" , tested on rGABA-gated Cl− channel.
25.4

Please provide the recorded rGABA-gated Cl− channel % inh @10 μM for "CN1CCC(C(=O)c2ccc(N3C(=S)N(c4cnc(C#N)c(C(F)(F)F)c4)C(=O)C34CCC4)cc2)CC1" , tested on rGABA-gated Cl− channel.
42.3

Please provide the recorded rGABA-gated Cl− channel % inh @10 μM for N#Cc1ncc(N2C(=O)C3(CCC3)N(c3ccc(O[C@H]4CCNC[C@H]4F)cc3)C2=S)cc1C(F)(F)F (racemic) , tested on rGABA-gated Cl− channel.
26.5

Please provide the recorded rGABA-gated Cl− channel % inh @10 μM for "C[C@@H]1OC(c2ccc(N3C(=S)N(c4cnc(C#N)c(C(F)(F)F)c4)C(=O)C34CCC4)cc2)=C[C@H](O)[C@H]1O" , tested on rGABA-gated Cl− channel.
99.6

Please provide the recorded rGABA-gated Cl− channel % inh @10 μM for "Cc1cc(N2C(=O)C3(CCC3)N(c3ccc(OC4CCN(CC(F)(F)F)CC4)nc3)C2=S)cnc1C#N" , tested on rGABA-gated Cl− channel.
61.0

Please provide the recorded rGABA-gated Cl− channel % inh @10 μM for "N#Cc1ncc(N2C(=O)C3(CCC3)N(c3ccc4c(c3)CCNC4)C2=S)cc1C(F)(F)F" , tested on rGABA-gated Cl− channel.
17.1

Please provide the recorded rGABA-gated Cl− channel % inh @10 μM for "N#Cc1ncc(N2C(=O)C3(CCC3)N(c3ccc(OCCN4CCC5(CCOC5)CC4)cc3)C2=S)cc1C(F)(F)F" , tested on rGABA-gated Cl− channel.
36.7

Please provide the recorded rGABA-gated Cl− channel % inh @10 μM for N#Cc1ncc(N2C(=O)C3(CCC3)N(c3ccc(C4CNCCO4)cc3)C2=S)cc1C(F)(F)F (stereo not drawn) , tested on rGABA-gated Cl− channel.
57.2

Please provide the recorded rGABA-gated Cl− channel % inh @10 μM for "CNC(=O)N1CCN(Cc2ccc(N3C(=S)N(c4cnc(C#N)c(C(F)(F)F)c4)C(=O)C34CCC4)cc2)CC1" , tested on rGABA-gated Cl− channel.
52.4

Please provide the recorded rGABA-gated Cl− channel % inh @10 μM for "N#Cc1ncc(N2C(=O)C3(CCC3)N(c3ccc(N4CCN(C(=O)N5CCCC5)CC4)cc3)C2=S)cc1C(F)(F)F" , tested on rGABA-gated Cl− channel.
85.4
